Entries and their pH at which hydrogel is stabilized / formed
- Protocol text: Hydrogel formation by dissolving peptides in NaOH solution
- Type: physicochemical
- Test conditions: 0.023M peptide in NaOH solutions
No end group written: not given here.
Outcome measure: pH at which hydrogel is stabilized / formed

{"Residues": "PEFEFEFEFEFEP [PFE-13, PE(FE)5P]", "Recorded value": "> 7"}
{"Residues": "PDFDFDFDFDFDP [PFD-13, PD(FD)5P]", "Recorded value": "~7"}
{"Residues": "PELELELELELEP [PLE-13, PE(LE)5P]", "Recorded value": "~6.5"}

---

- Protocol text: Hydrogel formation by dissolving peptides in NaOH solution
- Type: physicochemical
- Test conditions: 4% weight peptide in 100 μl NaOH solution, NaOH conc. 0.03
Entries and their Resultant pH
Outcome measure: Resultant pH

{"Substance": "Ac-Pro-Asp-(Phe-Asp)5-Pro-NH2 (Ac-PDFDFDFDFDFDP-NH2)", "Outcome measure": "Resultant pH", "Recorded value": "~6"}
{"Substance": "Pro-Asp-(Phe-Asp)6 (PDFDFDFDFDFDFD)", "Outcome measure": "Resultant pH", "Recorded value": "~6"}
{"Substance": "(Phe-Asp)6 (FDFDFDFDFDFD)", "Outcome measure": "Resultant pH", "Recorded value": "~6"}
{"Substance": "Pro-Asp-Phe-Asp (PDFD; printed: Pro-Asp-Phe-Asp)", "Outcome measure": "Resultant pH", "Recorded value": "~3"}
